B1: PPP2R2B (parent)
chain: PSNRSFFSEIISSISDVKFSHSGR

- Variants of: B1
- PROTOCOL: protein stability index of a GFP-peptide fusion (GPS, HEK-293T) (PSI 1-6); higher = more stable;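 note: lentivirally expressed fusions sorted by FACS into six bins by GFP to DsRed ratio, PSI derived from sequencing read proportions per bin multiplied by bin number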
- TEST CONTEXT: c terminus: a fixed tail appended
Measured protein stability index, listed per entry.
Form field (numeric): enter value without unit.

Example variants with recorded protein stability index:
>>> df
   mutant_id  numeric_readout
0       D16I             1.74
1       I14Q             3.18
2       S20P             2.48
3        R4S              2.8
4        R4K             2.54
5       I14D             3.04
6       I14P             3.05
7        S5R             2.64

Exam item: Param item = `I11T` ; retrieve measured protein stability index.
Marked response: 3.19

Exam item: Lookup `E9D`
Marked response: 2.44

Exam item: Similarly, `R24H` ?
Marked response: 1.94

Exam item: Proceed to `I10A`
Marked response: 3.33

Exam item: Then this variant: `F7R`
Marked response: 3.32

Exam item: What about `H21C` ?
Marked response: 2.22

Exam item: Moving on to `N3R`
Marked response: 2.35

Exam item: Param item: `R24A`
Marked response: 2.36

Exam item: Cool, now `N3C`
Marked response: 2.19

Exam item: What about this variant? `I10F`
Marked response: 2.43

Exam item: What do we get for `S5K` ?
Marked response: 2.17

Exam item: How about this variant: `K18N`
Marked response: 2.36

Exam item: Same for `G23Q`
Marked response: 2.24

Exam item: Now the variant `G23D`
Marked response: 2.72

Exam item: Could you do the same for `H21E` , please?
Marked response: 2.87

Exam item: Then `E9K` ?
Marked response: 2.23

Exam item: Moving on to the next variant: `I11R`
Marked response: 2.97
